Each entry below carries its recorded apparent KD of MS2 coat protein.
tested on: MS2 coat protein; experiment: apparent KD of MS2 coat protein, switch ON state; designed switch direction (-1 OFF switch, 1 ON switch): -1; higher = weaker reporter binding; conditions: FMN input: 0 or 200 uM; Eterna round: R93 (includes R88 designs)
observedProperty: apparent KD of MS2 coat protein (µM)

1) GGUUGGCGAGGAUAUACAUGAGGAUCACCCAUGUGAGAGAAAAAAGUGAGGAGGGAAAGUAGAAGGCGCUGACG [salish99-ex3-16]	0.0273
2) AAAAAACAUGAGGAUCACCCAUGUGAGGAUAUCGAAAAGUUAAAGAAAAAGACGAAAAUGAGAAGGCGCAAAAA [Fiskers Exclusion D1]	0.0263
3) AAAAAACAUGAGGAUCACCCAUGUGAGGAUAUGCAUAAAAAAAAAAAAAAAAAAAAAUGCAGAAGGCACAUAAA [jn_bayonne]	0.0401
4) AGGAAGUGAGGAUAUGCAGCAUAUAGUGGACGCUAUAGCAUGUAGAAGGCACAUGAGGAUCACCCAUGUUUAAA [EX4 Malc#38]	0.0308

* * *

system: MS2 coat protein; test: apparent KD of MS2 coat protein; designed switch direction (-1 OFF switch, 1 ON switch): -1; higher = weaker reporter binding; conditions: Eterna round: R95; input ligand: FMN 200 uM
Think of 20 nM as a floor: if apparent KD of MS2 coat protein stands on it or above, it is Satisfied; beneath it, Not satisfied.

1) GAAAUGGUAGGAUAUACGAAAAAAAAGGGUAGAAAAAAAACACAUGAGGAUCACCCAUGUAGAAGGACCAAAAG [salish99_ex2_r3_088] (puzzle: Exclusion 2)	Satisfied
2) ACCGGUGUUGCGGAUAAGCUUUUCUGCUCGUUUUAUCGCACAUGAGGAUCACCCAUGUCAUCCGUCAGCAUGCAAAC [Usveen] (puzzle: Sensor v3, turn-off variant 2)	Satisfied
3) CUGAGCAGACGGAGAUCCAACAUGAGGAUCACCCAUGUCUCAAAAGCUUUUUGCUUGUCUUAUUCUCCUCUGUUCUC [Bieda] (puzzle: Sensor v3, turn-off variant 1)	Not satisfied
4) GAUUAUGCGAGCUUUAGGGACAUGAGGAUCACCCAUGUUCGUCUUGUUGAUCUAGGUACACUGACAUACCUAAAUCU [JMF 65] (puzzle: Sensor v3, turn-off variant 1)	Satisfied
5) UUUAAUUUUUUUUUUUUACAAGCUUUUUGCUCGUCUUAUACAUGAGGAUCACCCAUGUAAAUGAGGGAUAAAUUAUC [JMF 38] (puzzle: Sensor v3, turn-off variant 2)	Not satisfied
6) UGUACUAUGCGAGCUGACUUGCGUAGUGCAGCAGGUGAAACAUGAGGAUCACCCAUGUCCUCAUUUGCUCGUCUUAU [SL-sv3-2.02 JL mod] (puzzle: Sensor v3, turn-off variant 2)	Satisfied
7) UAGAUGGCUCAGGAUAUUUGCCAACUAACCCGCAAAGAAGGGAGCACAUGAGGAUCACCCAUGUGAUCGAACAA [Xeortibeza] (puzzle: Exclusion 6)	Satisfied
8) GGUUGGCGAGGAUAUACAUGAGGAUCACCCAUGUGAGAGAAAAAAGUGAGGAAGAAACGUAGAAGGCGCUGACG [salish99_ex3_r3_037] (puzzle: Exclusion 3)	Satisfied
9) CUGGUCCGAGGAUAUAUUUAGUGAAACAUGAGGAUCACCCAUGUUAUUAGAUGGAUGUAAAUAGAAGGCGGACUAG [Mat - Exclusion 5 - JL mod - D63] (puzzle: Exclusion 5)	Not satisfied
10) AGAAAGCAAGGAUAUACAAGGAAACGACGGAAAGUAGAGAGACAUGAGGAUCACCCAUGUAGAAGGUGCGAGAG [JR_Exclu2_Sub033] (puzzle: Exclusion 2)	Satisfied
11) GAUUGAGAGCAGGAUAUCUUAGAAAUGUAUGAAAGAGAAGGGCUCACAUGAGGAUCACCCAUGUGGUCCUAGAU [JL Dibiri mod 17] (puzzle: Exclusion 6)	Satisfied
